- EXPERIMENT: liver-stage malaria parasite growth inhibition, primary screen, cell-based, HepG2, luciferase luminescence, HepG2 viability (AID 624349);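 note: 100% = mean of DMSO negative control wells on the same plate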
- APPLIED CONDITIONS: P. berghei liver stage in HepG2, luciferase luminescence, concentration not given here; measured here: HepG2 viability without parasites
Assignment: determine reported viability for the given compounds.
Numbers only, in %.

O=c1cc(-c2cccc3c2Sc2ccccc2S3)oc(N2CCOCC2)c1
161
C=CC1=C(C(=O)O)N2C(=O)[C@@H](NC(=O)C(=NOCC(=O)O)c3csc(N)n3)[C@H]2SC1
69.9
Cc1cccc(CCN2CCC(C(=O)c3ccc(NS(C)(=O)=O)cc3)CC2)n1
75.4

Hi team, please reply with viability for each item in this list.
1. N#C/C(=C\c1ccc(O)c(O)c1)C(=O)NCc1ccccc1
2. COc1cc(CNC(=O)CCCC/C=C\C(C)C)ccc1O
3. CCOC(=O)[C@@H](CCc1ccccc1)N[C@@H](C)C(=O)N1CCC[C@H]1C(=O)O
4. NC[C@@H]1O[C@H](O[C@@H]2[C@@H](CO)OC(O[C@@H]3[C@@H](O)[C@H](N)C[C@H](N)[C@H]3OC3O[C@H](CN)[C@@H](O)[C@H](O)[C@H]3N)[C@@H]2O)[C@H](N)[C@@H](O)[C@@H]1O (stereo not given in full)
5. NC1CCN(c2c(F)cc3c(=O)c(C(=O)O)cn(C4CC4)c3c2Cl)C1 (stereo not given)
6. CCC1=C[C@H]2CN(C1)Cc1c([nH]c3ccccc13)[C@@](C(=O)OC)(c1cc3c(cc1OC)N(C)[C@H]1[C@@](O)(C(=O)OC)[C@H](OC(C)=O)[C@]4(CC)C=CCN5CC[C@]31[C@@H]54)C2

a:
1: 65.5; 2: 75.2; 3: 126; 4: 91.2; 5: 73; 6: 76.8
